Tested on: HEK293
measurement-protocol: cells
Assay type: functional, Homo sapiens, ATCC CRL1573
test-conditions: Homo sapiens, ATCC CRL1573, HEK293; ASSAY_TEST Inhibition of Cell Viability; detection method Resazurin; Fluorescence (ex560/em590); MEDIA DMEM with 10% FBS; plate type 384well; TC; CORNING #3712; time 18 hr; read-out: CC50
As shown below, each of these compounds has a reported CC50 value.
attribute-measured: CC50

>>> experimental_value("COC(=O)CCC(=O)Nc1cc(C(=O)Nc2cc(C(=O)Nc3nc(C(=O)NCCCN(C)C)c(CCC(C)C)s3)n(C)c2)n(C)c1")
"> 32 µg/mL"
>>> experimental_value("COCCOC1CCN(CCNC(=O)c2cc(NC(=O)c3cc(NC(=O)c4ccc(/C=C/c5ccc(OC)cc5)nc4)cn3C)cn2C)CC1")
"3 µg/mL"
>>> experimental_value("COc1ccc(/C=C/c2ccc(C(=O)Nc3cc(C(=O)Nc4nc(C(=O)NCCN5CCOCC5)c(CCc5ccccc5)s4)n(C)c3)cn2)cc1.O=C(O)C(F)(F)F.O=C(O)C(F)(F)F")
"> 32 µg/mL"
>>> experimental_value("Cn1cc(NC(=O)c2ccc(/C=C/c3ccncc3)cc2)cc1C(=O)Nc1cc(C(=O)NCCN2CCOCC2)n(CCCCl)c1.O=C(O)C(F)(F)F.O=C(O)C(F)(F)F")
"2.7 µg/mL"
>>> experimental_value("COc1cccc(/C=C/c2ccc(C(=O)Nc3cc(C(=O)Nc4cc(C(=O)NCCN5CCC(O)CC5)n(C)c4)n(C)c3)cc2)c1.O=C(O)C(F)(F)F")
"11.7 µg/mL"
>>> experimental_value("Cn1cc(NC(=O)c2cc(NC(=O)c3ccccc3)cn2C)cc1C(=O)NCCC(=N)N.O=C(O)C(F)(F)F")
"7.43 µg/mL"
